Kd values by entry
# experimental-system: T1, extracellular domain of rhesus monkey BCMA (rhesus monkey, UniProt F7FFA0 1-53)
# T1 construct: extracellular domain; also called RhBCMA
# T1 sequence (F7FFA0 entry or part of it): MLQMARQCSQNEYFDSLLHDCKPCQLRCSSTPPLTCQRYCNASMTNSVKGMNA
# protocol-text: Octet BLI; Fab 200 nM
Numeric answer only, unit nM assumed.

| binder | Kd, nM |
| --- | --- |
| AB200_Fab + D99N (Fab, name in Kabat numbering, V domains shown, also called D99N variant) VH: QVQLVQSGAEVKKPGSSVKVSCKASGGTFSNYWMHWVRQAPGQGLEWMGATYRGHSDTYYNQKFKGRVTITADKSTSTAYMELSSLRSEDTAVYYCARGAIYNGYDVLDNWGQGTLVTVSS VL: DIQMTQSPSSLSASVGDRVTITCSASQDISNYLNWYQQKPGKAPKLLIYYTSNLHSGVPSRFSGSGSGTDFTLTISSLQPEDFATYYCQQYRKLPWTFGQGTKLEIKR | 3.32 |

AB200_Fab + D99S (Fab, name in Kabat numbering, V domains shown) VH: QVQLVQSGAEVKKPGSSVKVSCKASGGTFSNYWMHWVRQAPGQGLEWMGATYRGHSDTYYNQKFKGRVTITADKSTSTAYMELSSLRSEDTAVYYCARGAIYSGYDVLDNWGQGTLVTVSS VL: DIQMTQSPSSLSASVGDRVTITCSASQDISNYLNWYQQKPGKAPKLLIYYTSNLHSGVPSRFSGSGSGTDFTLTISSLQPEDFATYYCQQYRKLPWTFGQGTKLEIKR yielded Kd of 9.75

# binder AB200_Fab (D99D) (Fab, V domains shown) VH: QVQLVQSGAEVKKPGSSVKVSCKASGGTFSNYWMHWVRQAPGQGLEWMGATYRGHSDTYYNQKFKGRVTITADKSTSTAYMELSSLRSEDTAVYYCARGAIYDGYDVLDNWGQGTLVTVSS VL: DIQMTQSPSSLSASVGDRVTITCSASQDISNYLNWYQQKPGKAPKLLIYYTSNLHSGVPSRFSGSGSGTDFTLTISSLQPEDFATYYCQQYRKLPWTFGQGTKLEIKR ; its Kd = 5.89
